Tested on: antibodies in sera from SARS patients (sera 1a, 1b, 2, 6, 37, 62, London, SARS-yellow, SARS-green)
Type: binding, human
Threshold rule: Binding of serum SARS-green to linear peptides of protein N of SARS-CoV Urbani greater than or equal to 0.5 is y; below that, n.

Check out these entries, answers already filled in.
[[record]]
sequence = "RWYFYYLGTGPEASL"
class_label = "n"

[[record]]
sequence = "NNNAATVLQLPQGTT"
class_label = "n"

[[record]]
sequence = "RQKKQPTVTLLPAAD"
class_label = "y"

[[record]]
sequence = "IGMEVTPSGTWLTYH"
class_label = "n"

[[record]]
sequence = "GRNGARPKQRRPQGL"
class_label = "n"


// query Is it the case that `KKQPTVTLLPAADMD` has Binding of serum SARS-green to linear peptides of protein N of SARS-CoV Urbani reaching or exceeding 0.5?
// result y

// query Tell me whether Binding of serum SARS-green to linear peptides of protein N of SARS-CoV Urbani is at least 0.5 here: `IRQGTDYKHWPQIAQ`
// result n

// query State whether the measured Binding of serum SARS-green to linear peptides of protein N of SARS-CoV Urbani reaches 0.5, counting equality as reaching it, for `MSDNGPQSNQRSAPR`
// result n

// query Decide: is the reported value of Binding of serum SARS-green to linear peptides of protein N of SARS-CoV Urbani for `GKMKELSPRWYFYYL` equal to or greater than 0.5?
// result n

// query Given the entry `MEVTPSGTWLTYHGA` , answer whether its Binding of serum SARS-green to linear peptides of protein N of SARS-CoV Urbani meets or surpasses 0.5.
// result n

// query Does Binding of serum SARS-green to linear peptides of protein N of SARS-CoV Urbani meet or surpass 0.5 for `FTALTQHGKEELRFP` ?
// result y

// query hey, is Binding of serum SARS-green to linear peptides of protein N of SARS-CoV Urbani for this one >= 0.5? `NGPQSNQRSAPRITF`
// result n

// query # check: Binding of serum SARS-green to linear peptides of protein N of SARS-CoV Urbani of `QRQKKQPTVTLLPAA` is greater than or equal to 0.5
// result y
